- testDescription: amyloid nucleation score (Sup35N fusion, yeast selection) (log enrichment); library NNK2; higher = more nucleation; inactive = no reads after selection;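 also: zero at mode of non-aggregating sequences after 7 days selection at 30°C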
endpoint: amyloid nucleation score

The examples below pair each entry with its known result.
Query ECMAWGIFCGGSSGIFCLNQ yields amyloid nucleation score of inactive

Query PSFSFVMTLVNFRPDFLSMH yields amyloid nucleation score of -1.2

Query VYTLIIDW yields amyloid nucleation score of -1.44

Query GMSRYMHSIYD yields amyloid nucleation score of 1

New cases:
Query CLAFNFVFIHPSTGAFSRTS yields amyloid nucleation score of 8.38

Query NTSQDG yields amyloid nucleation score of 5.15

Query KAKIATKVSLFLLSGYVDLQ yields amyloid nucleation score of -0.356

Query MGCDGVSVLRWCTHIELGME yields amyloid nucleation score of -0.782

Query VLIFRAMIFDDKALVGMKD yields amyloid nucleation score of -0.521

Query YFKFFWNAQMLGCA yields amyloid nucleation score of inactive

Query GTSHWWIGMRFSEADLLLDW yields amyloid nucleation score of 0.656

Query AYSFDKHKNKGLSTASVGHM yields amyloid nucleation score of 0.894

Query VFFGLWRIVRGETSHFYRDE yields amyloid nucleation score of -0.835

Query VFVSCYYAYLLRDTTNFYVG yields amyloid nucleation score of inactive
